Target: T1, recombinant hMCAM-His (human, UniProt P43121 24-559)
T1 chain: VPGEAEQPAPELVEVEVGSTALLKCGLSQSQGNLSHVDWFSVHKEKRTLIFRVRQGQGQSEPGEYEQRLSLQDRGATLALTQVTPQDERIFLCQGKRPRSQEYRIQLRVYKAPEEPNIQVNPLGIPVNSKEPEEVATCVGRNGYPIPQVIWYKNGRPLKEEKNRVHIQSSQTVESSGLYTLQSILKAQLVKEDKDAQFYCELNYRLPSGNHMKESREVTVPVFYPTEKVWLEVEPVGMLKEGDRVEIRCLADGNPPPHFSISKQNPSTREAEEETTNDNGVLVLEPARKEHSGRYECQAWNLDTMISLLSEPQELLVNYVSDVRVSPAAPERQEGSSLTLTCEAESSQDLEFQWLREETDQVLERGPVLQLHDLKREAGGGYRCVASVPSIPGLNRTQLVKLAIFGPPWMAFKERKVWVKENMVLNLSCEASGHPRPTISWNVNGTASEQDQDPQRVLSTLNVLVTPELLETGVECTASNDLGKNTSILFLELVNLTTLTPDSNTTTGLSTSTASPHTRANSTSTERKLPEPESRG
Test: ForteBio Octet Red, antibody on anti-human Fc sensors, hMCAMHis analyte, 1:1 fit; affinity relative to rodent 2120, first Forte column
MEASURED_ENDPOINT: Fold over rodent (Forte)

>>> observed("humanized anti-MCAM antibody h2120_VH1 + h2120_VL2 (antibody, V domains shown, Human IgG1 / human kappa; also called h2120VH1VL2; Standard VH + aggressive VL) VH: QVTLKESGPVLVKPTETLTLTCTVSGFSLTSNGVSWVRQPPGKALEWIAAISSGGTTYYNSAFKSRLTISRDTSKSQVVLTMTNMDPVDTATYYCARRYGYGWYFDFWGQGTLVTVSS VL: DIQMTQSPSSLSASVGDRVTITCKASQNIYNSLAWYQQKPGKAPKVLIFNANSLQTGVPSRFSGSGSGTDFTLTISSLQPEDFATYYCQQFYSGYTFGQGTKLEIK")
"10.8 fold"
